pIC50: −log10 of the molar value.
Consider the following pIC50 values measured on ALK2 (Homo sapiens (Human), UniProt Q04771).
Sequence (Q04771 21-509): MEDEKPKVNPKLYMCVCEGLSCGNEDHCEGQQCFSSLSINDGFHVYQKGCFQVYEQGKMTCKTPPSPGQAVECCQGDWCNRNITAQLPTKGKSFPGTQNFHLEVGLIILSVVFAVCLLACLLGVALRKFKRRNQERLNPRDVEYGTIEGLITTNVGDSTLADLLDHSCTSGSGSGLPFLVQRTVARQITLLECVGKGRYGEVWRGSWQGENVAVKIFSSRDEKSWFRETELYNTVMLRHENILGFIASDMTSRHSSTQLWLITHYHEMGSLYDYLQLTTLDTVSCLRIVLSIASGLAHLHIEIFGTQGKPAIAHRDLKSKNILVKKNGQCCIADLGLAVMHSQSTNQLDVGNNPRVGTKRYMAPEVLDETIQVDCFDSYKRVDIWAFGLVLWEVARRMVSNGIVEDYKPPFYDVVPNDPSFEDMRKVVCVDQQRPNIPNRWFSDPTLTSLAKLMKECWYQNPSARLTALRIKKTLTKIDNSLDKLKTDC

Query: Which measured pIC50 belongs to COc1cc(-n2cnc(Nc3nc(N4CCC[C@H]4C(N)=O)c4c(ccn4S(=O)(=O)c4ccc(C)cc4)n3)c2)cc(OC)c1OC [Compound 191b] , tested on ALK2 (Homo sapiens (Human), UniProt Q04771)?
Result: > 7.00

----------
Molecular target: ALK2 (Homo sapiens (Human))
pIC50: −log10 of the molar value.
readout.label: pIC50

Some compounds with known pIC50 results, for comparison:
COc1cc(-n2cnc(Nc3nc(N4CCC[C@H]4CO)nn4c(C(C)O)ccc34)c2)cc(OC)c1OC (stereo partly drawn) [Compound 99b] | > 7.00
COc1cc(-n2cnc(Nc3nc(N4CCC[C@H]4CO)nc4cc(F)ccc34)c2)cc(OC)c1OC [Compound 269a] | > 7.00
COc1cc(-n2cnc(Nc3nc(N4CCC[C@H]4C(N)=O)c4ccn(S(=O)(=O)c5ccc(C)cc5)c4n3)c2)cc(OC)c1OC [Compound 173b] | < 6.00
COc1cc(-n2cnc(Nc3nc4c(c(N5CCC[C@H]5CO)n3)CCN(CC(N)=O)C4)c2)cc(OC)c1OC [Compound 218a] | > 7.00
COc1cc(-n2cnc(Nc3nc(N4CCCC4)c4sccc4n3)c2)cc(OC)c1OC [Compound 207b] | > 7.00
COc1cc(-n2cnc(Nc3nc(N4CCC[C@@H]4C(N)=O)nc4ccccc34)c2)cc(OC)c1OC [Compound 305a] | > 7.00
COc1c(C(C)=O)ccc(-n2cnc(Nc3nc(N4CCC[C@H]4CO)nn4cccc34)c2)c1OC [Compound 212g] | > 7.00
COc1cc(-n2cnc(Nc3nc(N4CCC[C@H]4CO)c4cnn(C5CCC5)c4n3)c2)cc(OC)c1OC [Compound 464d] | > 7.00

Query: Give its pIC50 value. Item: COc1cc(-n2cnc(Nc3nc(N4CCC[C@H]4C(N)=O)c4occc4n3)c2)cc(OC)c1OC [Compound 151b]
Result: 6.00 to 7.00

Query: Give its pIC50 value. Item: COc1cc(-n2cnc(Nc3nc(N4CCCC4)nc4scnc34)c2)cc(OC)c1OC [Compound 197a]
Result: > 7.00

Query: Give its pIC50 value. Item: COc1cc(-n2cnc(Nc3nc(N4CCC[C@H]4CO)nn4c(CN5CCN(C)CC5)ccc34)c2)cc(OC)c1OC [Compound 112b]
Result: > 7.00

Query: Give its pIC50 value. Item: COc1cc(-n2cnc(Nc3nc(N4CCC[C@H]4CO)c4c(C)nn(CC5CC5)c4n3)c2)cc(OC)c1OC [Compound 463c]
Result: > 7.00

Query: Give its pIC50 value. Item: COc1cc(C(=O)N2CCC[C@H]2CO)cc(-n2cnc(Nc3nc(N4CCC[C@H]4CO)nn4cccc34)c2)c1 [Compound 416f]
Result: 6.00 to 7.00

Query: Give its pIC50 value. Item: COc1cc(-n2cnc(Nc3nc(N4CCC[C@H]4CO)nc4cc[nH]c34)c2)cc(OC)c1OC [Compound 160d]
Result: > 7.00

Query: Give its pIC50 value. Item: COc1cc(-n2cnc(Nc3nc(N4CCC[C@H]4CO)c4c(C)nn([C@H]5CC[C@H](N)CC5)c4n3)c2)cc(OC)c1OC [Compound 435e]
Result: > 7.00
